# procedure text: Compound solubility in water
# Format: physicochemical
quantity measured: solubility (µg/mL)
Numbers only here, please. The scale is µg/mL.

Q: Can you look up the measured solubility of Cc1cc(N)nc2c(C(=O)NC(c3ccc(F)cc3)C(F)(F)F)ncn12 (centres unmarked) for me?
Ans: 0.9

Q: Can you look up the measured solubility of Cc1cc(Oc2ccc(F)cc2)nc2c(C(=O)N[C@@H](C)C3CC3)ncn12 for me?
Ans: 10.6

From: patent US10787454B2
